Tested on: UACC-257 melanoma
Assay: NCI tumour cell line growth inhibition, 48 h
Measured TGI values are reported for all entries that follow.
experimentalEndpoint: TGI

1. O=C(c1ccccc1)N1C(=S)N=C(Nc2ccccc2)C1=Nc1ccccc1
> 100 µM
2. Cn1ccnc1Sc1ccc(C=Nc2ccc3nc(SCC(=O)NC4CCCCC4)sc3c2)cc1[N+](=O)[O-]
> 100 µM
3. CCOC(=O)C1CN(C2CC2)CCC1=O (stereo not given)
> 100 µM
4. COC(=O)[C@H](Cc1ccccc1)NC(=O)c1ccc(CNC(=O)/C=C/c2cccc(Oc3ccccc3)c2)cc1
21.8 µM
5. CCCCCCCCCCN1CCC(N2CCCCC2)CC1
3.24 µM

* * *

Test system: A549 NSCLC
Assay: NCI tumour cell line growth inhibition, 48 h
experimentalEndpoint: GI50

1. Nc1ccccc1SC1CC(=O)N(c2ccc(Cl)c(Cl)c2)C1=O (stereo not drawn)
19.5 µM
2. Clc1cc(Cl)cc(Nc2ccc3cc(OCCCN4CCOCC4)ccc3n2)c1
3.93 µM
3. O=C(N/N=C/c1c(Cl)cccc1Cl)c1ccc(C(F)(F)F)nc1Nc1cccc(C(F)(F)F)c1
1.54 µM

* * *

System: MDA-N
Assay: NCI tumour cell line growth inhibition, 48 h
experimentalEndpoint: TGI

1. COC(=O)C1=C(O)C(C(=O)OC)[C@@]2(O)[C@@H](C(=O)OC)[C@H](C)[C@@H](C)[C@@H]1[C@@H]2C(=O)OC (stereo partly drawn)
50.1 µM
2. Cc1cc(/N=C/c2ccc(C#N)cc2)n(-c2ccccc2)n1
> 100 µM
3. C[C@H]1CCC/C=C/[C@@H]2C[C@H](O)C[C@H]2[C@H](O)[C@@H](SCC(O)CO)CC(=O)O1 (stereo partly drawn)
> 100 µM
4. O=C(CCCN1CCC2(CC1)C(=NC1CCCCC1)NC(=O)N2c1ccccc1)c1ccc(F)cc1
34.9 µM
5. c1ccc(C2=Nn3c(CCCCCCCCc4nnc5n4N=C(c4ccccc4)CS5)nnc3SC2)cc1
> 100 µM
6. O=C(O)CSC(NC(=O)C(C(F)(F)F)C(F)(F)F)(C(F)(F)F)C(F)(F)F
> 100 µM
7. CCCCN(CCCC)C(=C(C(Cl)=C(Cl)Cl)[N+](=O)[O-])N(CCCC)CCCC
> 100 µM
8. NS(=O)(=O)c1ccc(NC(NC(=O)C(C(F)(F)F)C(F)(F)F)(C(F)(F)F)C(F)(F)F)cc1
> 100 µM

* * *

Test system: MALME-3M melanoma
Experiment: NCI tumour cell line growth inhibition, 48 h
experimentalEndpoint: TGI (µM)

1. O=c1oc2ccc(Br)cc2c(=O)n1-c1ccc(F)cc1F
5.87
2. O=C(O)c1c2c(cc3c1CC1(Cc4ccccc4C1=O)C3)CCC2 (stereo not given)
76.6

* * *

Tested on: LOX IMVI melanoma
Experiment: NCI tumour cell line growth inhibition, 48 h
Where a SMILES comes first, the peptide text is derived from it. The star is where a group is joined. Bn = c1ccc(C*)cc1
Measured TGI accompanies every entry in the list below.
experimentalEndpoint: TGI

1. CC(C)CCn1nc(N)c2nc3ccccc3nc21
> 100 µM
2. O=C(CCCN1CCC2(CC1)C(=NC1CCCCC1)NC(=O)N2c1ccccc1)c1ccc(F)cc1
30 µM
3. CN1CCN(c2ccc(Nc3ncc4cc(C#N)c(=O)n(C5CCCC5)c4n3)cc2)CC1
3.51 µM
4. COC(=O)C(CC(C)C)NC(=O)C(N)Cc1ccc(OCc2ccccc2)cc1 (stereo unspecified) (H-Tyr(Bn)-Leu-OMe; configuration not given here)
> 10 µM
5. COc1cc(C(=O)N2CCc3c([nH]c4c([N+](=O)[O-])c(OC)ccc34)C2C)cc(OC)c1OC (stereo unspecified)
> 100 µM
6. O=C1C(Cl)=C(Nc2ccccc2O)C(=O)N1Cc1ccccc1
30.1 µM
7. COC(=O)c1cc(C)ccc1CC(Cc1ccc(C)cc1)C(=O)OC (stereo unspecified)
> 100 µM
8. C/C(CCn1[nH]c(=O)ccc1=O)=N\OCCCc1ccccc1
> 100 µM
9. O=C(O)c1c2c(cc3c1CC1(Cc4ccccc4C1=O)C3)CCC2 (stereo unspecified)
> 89.1 µM
10. CC(O)CC(O)(C(F)(F)F)C(F)(F)F (stereo unspecified)
> 10 µM
11. CC1=CC(=O)C(C(O)(C(F)(F)F)C(F)(F)F)C(C)(C)C1 (stereo unspecified)
> 10 µM
12. Cc1ccc(-c2c(C#N)c(-c3ccc([N+](=O)[O-])cc3)c(C#N)c(=O)n2NS(=O)(=O)c2ccccc2)cc1
83 µM
13. CCC(=O)Nc1ccc(N=NN(C)C)cc1
> 100 µM
14. CCc1nc2cc3cccnc3c(Cl)c2[nH]c1=O
> 100 µM
15. O=c1[nH]c(=O)n([C@H]2CCCO2)cc1F
> 5000 µM
16. C=C1CC[C@@H](C(C)C)C[C@@H]2[C@H]([C@H](O)C[C@]2(C)O)[C@@]2(C)CC[C@@H]1O2
27.9 µM
17. CCN1C(=O)N(CC)C2Nn3c(s/c(=C4\C(=O)N(C)c5ccccc54)c3=O)=NC21 (stereo unspecified)
> 100 µM
18. c1ccc(-c2cnc(-c3ccc(-c4ncc(-c5ccccc5)o4)cc3)o2)cc1
> 100 µM
19. Clc1ccc(Cl)c(SCCCN2CCNCC2)c1
35.8 µM
20. O=C1CCCc2cc3c(cc21)CC1(C3)Cc2ccc3c(c2C1)C(=O)CCC3 (stereo unspecified)
> 100 µM
21. Cc1cc(C)n(-c2nnc3n2N=C(c2ccc(-c4ccccc4)cc2)CS3)n1
> 100 µM
22. O=c1c2ccccc2nc(-c2ccccc2)n1NC(=S)Nc1ccccc1
> 100 µM
23. CN(C)P(=O)(Oc1occc1C(O)Cc1ccccc1)N(C)C (stereo unspecified)
> 100 µM
24. Cc1c2ccncc2c(C)c2c1[nH]c1ccccc12
4.2 µM
25. Cc1cn([C@H]2C[C@](C)(CO)N(C)O2)c(=O)[nH]c1=O
> 100 µM
26. O=[N+]([O-])c1ccc(C2=Nc3ccccc3SC(c3ccccc3)C2)cc1 (stereo unspecified)
29.3 µM
27. CCOC(=O)[C@@H]1ON2O[C@@H](OC3CCCC3(c3ccccc3)c3ccccc3)C[C@H]3OC(=O)[C@@H]1C32 (stereo partly specified)
> 100 µM
28. Clc1cc(Cl)cc(Nc2ccc3cc(OCCCN4CCOCC4)ccc3n2)c1
3.05 µM
29. O=C(N/N=C/c1ccc([N+](=O)[O-])o1)c1ccc(O)cc1
16.9 µM
30. CC(=O)OC1C2CCC1C1C2C2(Cl)C(Cl)=C(Cl)C1(Cl)C2(Cl)Cl (stereo unspecified)
29.1 µM
31. COC(=O)CCC1=C(CC(=O)OC)C(C)=N/C1=C\c1[nH]c(-c2ccc[nH]2)cc1OC
3.11 µM
32. COC(=O)C1=C(O)C(C(=O)OC)[C@@]2(O)[C@@H](C(=O)OC)[C@H](C)[C@@H](C)[C@@H]1[C@@H]2C(=O)OC (stereo partly specified)
> 100 µM
33. O=C1C(=O)N(c2cc(Cl)ccc2Cl)C(=O)C(=O)C1c1nc2ccccc2o1
> 100 µM
34. COc1ccc2c(c1)C(C)Cc1c(ncnc1-n1cnc3cc(C)ccc31)N2C (stereo unspecified)
14.5 µM
35. CC(=O)OCCOCNC(=S)N/N=C/c1ccc(Br)s1
> 100 µM
36. C=CCn1c2c(sc1=S)C(S)N=CN2 (stereo unspecified)
> 100 µM
37. COc1ccc(Cc2cnc(NC(=O)c3ccc4c(c3)OCCO4)s2)cc1
> 100 µM
38. O=C1c2cccc(NCCNCCO)c2C(=O)c2cccc(NCCNCCO)c21
1.65 µM
39. Nc1nc(N)c2cc(CNc3ccc(C(=O)NC(CC(=O)O)C(=O)O)c(Cl)c3)ccc2n1 (stereo unspecified)
> 500 µM
40. O=C(c1ccccc1)N1C(=S)N=C(Nc2ccccc2)C1=Nc1ccccc1
> 100 µM
41. CC1=C(C(=O)NNS(=O)(=O)c2ccc(C)cc2)CC(C(=O)NNS(=O)(=O)c2ccc(C)cc2)=C(C)N1
> 100 µM

* * *

Tested on: SF-539 CNS
Assay: NCI tumour cell line growth inhibition, 48 h
experimentalEndpoint: GI50

1. COC(=O)CCC1=C(CC(=O)OC)C(C)=N/C1=C\c1[nH]c(-c2ccc[nH]2)cc1OC
5630 nM
2. CCN(CC)c1cc2oc3cc(N)cc(=N)c-3nc2cc1C
3440 nM
3. CO/N=C(/C)c1cccc(Nc2cc(-c3ccccc3)nc3ccc(OC)cc23)c1
2450 nM
4. CC/C=C/C/C=C/C/C=C/C/C=C/C/C=C/C/C=C/CCC(=O)Nc1ccn([C@@H]2O[C@H](CO)[C@@H](O)C2(F)F)c(=O)n1
42.5 nM
5. CCCCCCCCCCCCOC1C(C(CC(=O)NCCN2CCCC2)NS(=O)(=O)c2cc(Cl)cc(Cl)c2)OC2OC(C)(C)OC21 (stereo not given)
2010 nM
6. COC(=O)c1cc(/C=C/c2ccc(S(N)(=O)=O)cc2)ccc1O
18400 nM
7. COc1ccc(/C=C(/c2ccccc2)[N+](=O)[O-])cc1
1770 nM
8. C[C@H]1CCC/C=C/[C@@H]2C[C@H](O)C[C@H]2[C@H](O)[C@@H](SCC(O)CO)CC(=O)O1 (stereo not given in full)
31800 nM
9. c1csc(-c2c3ccc(=[N+]4CCCCC4)cc-3oc3cc(N4CCCCC4)ccc23)c1
44.6 nM
10. CCCCCCCCCCN1CCC(N2CCCCC2)CC1
1480 nM
11. N#Cc1ccc(OC(=O)Nc2ccc(Cl)c(Cl)c2)cc1
4430 nM
12. COc1ccc2c(Oc3ccc(NC(=O)c4c(C)n(CC(C)(C)O)n(-c5ccccc5)c4=O)nc3)ccnc2c1
5850 nM
13. [F][Sn]([F])([c]1ccccc1)[c]1ccccc1
2130 nM
14. Nc1ccccc1SC1CC(=O)N(c2ccc(Cl)c(Cl)c2)C1=O (stereo not given)
63600 nM
15. O=C(OCc1ccc2c(Cl)cc(Cl)c(O)c2n1)N1CCN(C(=O)c2cc3cc(F)ccc3[nH]2)CC1
403 nM

Recorded values, source PubChem BioAssay (NCI).
